system: SNB-75 CNS; experiment: NCI tumour cell line growth inhibition, 48 h
Label label 1 for high-side TGI (at or above 9 µM) and label 0 for low-side TGI (below it).

[[record]]
molecule = "[N-]=[N+]=NC1=C(c2ccccc2)C(=O)c2cccc3cccc1c23"
measured_target = "SNB-75 CNS"
assigned_class = "label 1"

[[record]]
molecule = "COc1ccc(CC2C3=C(CCCC3)CCN2C)cc1 (configuration not stated)"
measured_target = "SNB-75 CNS"
assigned_class = "label 1"

[[record]]
molecule = "COc1ccccc1Cn1c2c(c3c(C(=O)NCCN(C)C)c(O)ccc31)C(=O)c1ccccc1C2=O"
measured_target = "SNB-75 CNS"
assigned_class = "label 0"

[[record]]
molecule = "Cc1ccc(C)c(NC(=O)C(Cc2c[nH]c3ccccc23)NC(=O)OCc2ccccc2)c1 (configuration not stated)"
measured_target = "SNB-75 CNS"
assigned_class = "label 1"

[[record]]
molecule = "CC1OC(OC2CC(O)(C(=O)CO)Cc3c(O)c4c(c(O)c32)C(=O)c2ccccc2C4=O)CC(N)C1O (configuration not stated)"
measured_target = "SNB-75 CNS"
assigned_class = "label 0"

[[record]]
molecule = "COc1ccc(C#CCC(OC2OC(CO)C(O)C(O)C2O)C(O)c2ccc(OC)c(OC)c2)cc1OC (configuration not stated)"
measured_target = "SNB-75 CNS"
assigned_class = "label 1"


====

test system: HCC-2998 colon; assay: NCI tumour cell line growth inhibition, 48 h
As shown below, each of these compounds has a reported GI50 value.
Outcome Measure: GI50

[[record]]
compound = "O=c1cccc(C#CC#C/C=C/CO)o1"
outcome_measure = "GI50"
observed = "2.09 µM"

[[record]]
compound = "N=c1ccn2c(n1)O[C@@H]1[C@@H](O)[C@H](CO)O[C@@H]12"
outcome_measure = "GI50"
observed = "21.2 µM"

[[record]]
compound = "Cc1ccc(NC(=O)c2nc(S(C)=O)oc2-c2ccc(F)cc2)cc1Nc1nccc(-c2cccnc2)n1 (centres undefined)"
outcome_measure = "GI50"
observed = "3.91 µM"

[[record]]
compound = "CC/C=C\\C/C=C\\C[C@H]1C/C=C2/C(=O)C=C[C@H]2C/C=C\\CCC(=O)O1"
outcome_measure = "GI50"
observed = "2.77 µM"


====

test system: NCI-H23 lung; assay: NCI tumour cell line growth inhibition, 48 h
As shown below, each of these molecules has a reported TGI value.
Outcome Measure: TGI

[[record]]
molecule = "COc1cc2c(cc1OC)C(Cc1c3ccccc3cc3ccccc13)N(C)CC2 (stereo not given)"
outcome_measure = "TGI"
observed = "> 85.3 µM"

[[record]]
molecule = "N/N=C(\\C(=O)Nc1ccc([N+](=O)[O-])cc1)C(C1=Nc2cc([N+](=O)[O-])ccc2NC1)[N+](=O)[O-] (stereo not given)"
outcome_measure = "TGI"
observed = "> 100 µM"

[[record]]
molecule = "N#Cc1c2nc3ccccc3nc2n2ccc3ccccc3c12"
outcome_measure = "TGI"
observed = "> 100 µM"

[[record]]
molecule = "O=C1OC2C(O)C(=O)OC2C1O (stereo not given)"
outcome_measure = "TGI"
observed = "> 100 µM"

[[record]]
molecule = "CC(C)Oc1ccc(C(=O)N[C@H](CNC(=O)CN(C)C)Cc2ccc(-c3cn4cccc([C@H](C)O)c4n3)cc2)cc1Cl"
outcome_measure = "TGI"
observed = "21.5 µM"

[[record]]
molecule = "COc1ccc(C(=O)O)c(Cc2ccc3ccccc3c2)c1"
outcome_measure = "TGI"
observed = "> 100 µM"

[[record]]
molecule = "CC(=O)c1ccc(NCN2C(=O)c3ccccc3C2=O)cc1"
outcome_measure = "TGI"
observed = "> 100 µM"

[[record]]
molecule = "CCCN1CCN(c2ccc3nc(-c4ccc5nc(-c6ccc(OCC)c(OCC)c6)[nH]c5c4)[nH]c3c2)CC1"
outcome_measure = "TGI"
observed = "0.765 µM"

[[record]]
molecule = "Cc1cc(-c2ccccc2)cc2[n+]1CC=C2"
outcome_measure = "TGI"
observed = "> 100 µM"

[[record]]
molecule = "CC1=CC2C(C(C)C)CC1C1C(=O)OC(=O)C21 (stereo not given)"
outcome_measure = "TGI"
observed = "> 100 µM"


====

test system: K-562 leukemia; test: NCI tumour cell line growth inhibition, 48 h
Outcome Measure: TGI

[[record]]
compound = "Cc1cc2c(c(N)c1C)C(=O)c1ccccc1C2=O"
measured_target = "K-562 leukemia"
observed = "> 100 µM"

[[record]]
compound = "CC1=C(C)C(=O)OC([C@](C)(O)[C@]2(O)CC[C@@]3(O)[C@@H]4C[C@H]5O[C@]56CC=CC(=O)[C@]6(C)[C@H]4CC[C@]23COC(=O)c2ccc(C)o2)C1 (some centres undefined)"
measured_target = "K-562 leukemia"
observed = "> 43.5 µM"

[[record]]
compound = "O=S(=O)(NCCCNc1cc(-c2cn(-c3ccccc3)nc2-c2cccc(O)c2)ccn1)c1ccc(Cl)cc1"
measured_target = "K-562 leukemia"
observed = "2.5 µM"

[[record]]
compound = "CC1CCC23COC(=O)C2C(O)CCC3C1(C)CC(O)c1ccoc1 (centres undefined)"
measured_target = "K-562 leukemia"
observed = "> 100 µM"


====

system: HS 578T breast; test: NCI tumour cell line growth inhibition, 48 h; in the data active = GI50 below about 0.43 µM; inactive = the rest
Classes used: true (active), false (inactive)

[[record]]
compound = "COc1ccc(CNc2nc(NCc3ccc(OC)cc3)c3n[nH]c(C(C)C)c3n2)cc1"
assigned_class = "false"

[[record]]
compound = "O=C(/C=C/c1cccnc1)c1ccccc1O"
assigned_class = "false"

[[record]]
compound = "CC[C@]12CCCN3CC[C@]4(C(=C(C(=O)OC)C1)Nc1ccccc14)[C@@H]32"
assigned_class = "false"

[[record]]
compound = "COc1cc(C2C(C#N)=C(N)Oc3cc(O)ccc32)cc(OC)c1OC (configuration not stated)"
assigned_class = "true"

[[record]]
compound = "CC(C)[C@@H]1CC[C@@H]2[C@@H]1[C@H](OC(=O)/C=C/c1ccccc1)[C@]1(C(C)C)C[C@@H](OC(=O)CO)[C@@]2(C)O1"
assigned_class = "true"

[[record]]
compound = "O=CC1(C2(C=O)c3ccccc3-c3ccccc32)c2ccccc2-c2ccccc21"
assigned_class = "false"

[[record]]
compound = "Cc1ccccc1/C=C1\\CN(C(=O)OC(C)(C)C)C/C(=C\\c2ccccc2C)C1=O"
assigned_class = "false"

[[record]]
compound = "C[C@@]1(N2C(=O)OC[C@@H]2c2ccccc2)C(=O)N([C@H](CC(=O)N2CCC(N3CCCCC3)CC2)C(=O)NCc2cccc(C(F)(F)F)c2)[C@@H]1/C=C/c1ccccc1"
assigned_class = "false"

[[record]]
compound = "COc1cc2c3c(n(CCCCl)c(=O)c2cc1OC)-c1ccc(C#N)cc1C3=O"
assigned_class = "false"

[[record]]
compound = "S=C(N/N=C(/c1ccccc1)c1ccccn1)Nc1cccc(Cl)c1"
assigned_class = "true"

[[record]]
compound = "C[n+]1ccc(-c2c3nc(c(-c4ccc5c(ccc[n+]5C)c4)c4ccc([nH]4)c(-c4cc[n+](C)cc4)c4nc(c(-c5ccc6c(ccc[n+]6C)c5)c5ccc2[nH]5)C=C4)C=C3)cc1"
assigned_class = "false"

[[record]]
compound = "CC([O-])C(=O)[O-].NCC1CCC1CN.[Pt+4] (configuration not stated)"
assigned_class = "false"


====

test system: 786-0 renal; test: NCI tumour cell line growth inhibition, 48 h
Outcome Measure: TGI

[[record]]
compound = "O=C(c1ccccc1)c1c(CNCc2ccccc2)n(C(=O)c2ccccc2)c2ccccc12"
outcome_measure = "TGI"
observed = "> 100 µM"

[[record]]
compound = "CCN1CCN(C(=O)[C@]23CCC(C)(C)C[C@@H]2C2=CC[C@@H]4[C@@]5(C)C/C(=C/c6cccnc6)C(=O)C(C)(C)[C@@H]5CC[C@@]4(C)[C@]2(C)CC3)CC1"
outcome_measure = "TGI"
observed = "3.08 µM"

[[record]]
compound = "CN(C)/C=N/c1nc2ncn(CCOC(=O)c3ccccc3)c2c(=O)[nH]1"
outcome_measure = "TGI"
observed = "> 100 µM"

[[record]]
compound = "Cc1cc(-c2ccccc2)cc2[n+]1CC=C2"
outcome_measure = "TGI"
observed = "> 100 µM"

[[record]]
compound = "CC1(C)OC(=O)C(=C2CC(c3ccccc3)c3ccccc32)C(=O)O1 (centres undefined)"
outcome_measure = "TGI"
observed = "> 100 µM"

[[record]]
compound = "COc1ccc(Cn2c(Br)c3c(c2-c2cc(OC)c(OC)c(OC)c2)CCc2sc(NC(C)=O)nc2-3)cc1"
outcome_measure = "TGI"
observed = "> 100 µM"

[[record]]
compound = "Cc1cc2[nH]c3c(C#N)c(-c4ccccc4)c(CN4CCOCC4)c(=O)n3c2cc1C"
outcome_measure = "TGI"
observed = "> 100 µM"

[[record]]
compound = "Cc1ccc(C)c(NC(=O)C(Cc2c[nH]c3ccccc23)NC(=O)OCc2ccccc2)c1 (centres undefined)"
outcome_measure = "TGI"
observed = "39.3 µM"

[[record]]
compound = "COC(=O)CCC(=O)c1ccc2c(c1)CC1(C2)Cc2ccc3c(c2C1)CCCC3=O (centres undefined)"
outcome_measure = "TGI"
observed = "> 85.2 µM"


The values you see were collected from PubChem BioAssay (NCI).
